B1: RIPK4 (parent)
chain: VSVNAQTLDGRTPLHLAAQRGHYR

# Variants of: B1
# METHOD_DESCRIPTION: protein stability index of a GFP-peptide fusion (GPS, HEK-293T) (PSI 1-6); higher = more stable;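 also: lentivirally expressed fusions sorted by FACS into six bins by GFP to DsRed ratio, PSI derived from sequencing read proportions per bin multiplied by bin number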
# MEASUREMENT_CONTEXT: c terminus: a fixed tail appended
Listing of entries alongside the reported protein stability index.
READOUT: protein stability index

VSVNAQTLDGRTPLHLAAQRHHYR
3.26
VSVNAQTLIGRTPLHLAAQRGHYR
2.33
VSVNAQTLDGRTPLHLAAQRGVYR
3.79
ISVNAQTLDGRTPLHLAAQRGHYR
3.54
VSVNAQTLDGRTNLHLAAQRGHYR
3.38
VSVNAQTLAGRTPLHLAAQRGHYR
3.09
VSVNAQTLDGRTPLHLAIQRGHYR
2.75
VSVNAQTLDGRTPLHLAAQRGYYR
2.47
VSVNAQTLDGRTPLHLAAQRWHYR
2.05
VSVNAQTLDGLTPLHLAAQRGHYR
2.9
VSVNASTLDGRTPLHLAAQRGHYR
3.78
VSVNAQTLVGRTPLHLAAQRGHYR
2.9
VSVNAQTLDGFTPLHLAAQRGHYR
2.65
VSVNAFTLDGRTPLHLAAQRGHYR
2.22
VSVNLQTLDGRTPLHLAAQRGHYR
2.76
